# measurement protocol: Cytotoxicity against dog MDCK cells assessed as cell viability measured after 48 hrs by MTT assay
# Format: toxicity, cell-based, Canis lupus familiaris
# CC50 at 48 h annotations

As a guide, the following entries are already answered.
[
  {
    "smiles code": "CC(=O)c1cc(C)c(O)c(Cc2[nH]c3cc(-c4cc(C(C)(C)C)cc(C(C)(C)C)c4)ccc3c2Cc2c(O)c(C)cc(C(C)=O)c2O)c1O",
    "CC50 at 48 h": "280 µM"
  },
  {
    "smiles code": "CC(=O)c1cc(C)c(O)c(Cc2[nH]c3ccc(Cl)cc3c2Cc2c(O)c(C)cc(C(C)=O)c2O)c1O",
    "CC50 at 48 h": "> 300 µM"
  },
  {
    "smiles code": "C=CCn1c(Cc2c(O)c(C)cc(C(C)=O)c2O)c(Cc2c(O)c(C)cc(C(C)=O)c2O)c2ccccc21",
    "CC50 at 48 h": "> 300 µM"
  },
  {
    "smiles code": "CSc1ccc(-c2ccc3[nH]c(Cc4c(O)c(C)cc(C(C)=O)c4O)c(Cc4c(O)c(C)cc(C(C)=O)c4O)c3c2)cc1",
    "CC50 at 48 h": "> 300 µM"
  },
  {
    "smiles code": "CC(=O)c1cc(C)c(O)c(Cc2[nH]c3ccc(-c4c5ccccc5cc5ccccc45)cc3c2Cc2c(O)c(C)cc(C(C)=O)c2O)c1O",
    "CC50 at 48 h": "> 300 µM"
  }
]

Req: Recorded CC50 at 48 h for CC(=O)c1cc(C)c(O)c(Cc2c(Cc3c(O)c(C)cc(C(C)=O)c3O)n(Cc3ccccc3)c3ccccc23)c1O , please?
Resp: > 300 µM

Req: Name the recorded CC50 at 48 h for COc1ccc(-c2ccc3c(Cc4c(O)c(C)cc(C(C)=O)c4O)c(Cc4c(O)c(C)cc(C(C)=O)c4O)[nH]c3c2)cc1OC .
Resp: 240 µM

Req: Suppose we examine the compound CC(=O)c1cc(C)c(O)c(Cc2[nH]c3ccc(-c4ccc(F)cc4)cc3c2Cc2c(O)c(C)cc(C(C)=O)c2O)c1O ; what CC50 at 48 h value has been reported?
Resp: 212 µM
